Cited source for all entries: patent US20210380675A1

Molecular target: T1, human IL-36α(Q12), truncated (human, UniProt Q9UHA7 6-158)
T1 construct: Untagged after removal of the His-SUMO tag
T1 sequence: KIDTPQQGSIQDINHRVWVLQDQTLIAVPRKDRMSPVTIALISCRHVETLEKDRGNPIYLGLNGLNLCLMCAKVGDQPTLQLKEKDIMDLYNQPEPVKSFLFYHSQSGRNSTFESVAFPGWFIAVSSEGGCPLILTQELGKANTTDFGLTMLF
Assay: SPR, Biacore T200, antibody on chip, IL-36 as analyte, 1:1 Langmuir fit
Known koff of a selection of binders
Give just the numeric value; s⁻¹ need not be written.

Below: 2 binders and their reported koff.
Input line: Would you mind telling me what koff value was observed for chimeric m/h 144D464A (antibody, human IgG1, lambda, V domains shown, Mouse VH/VL joined to human IgG1 constant and human Ig lambda (IGLC2) constant; also called chimeric mouse/human (m/h) 144D464A antibody) VH: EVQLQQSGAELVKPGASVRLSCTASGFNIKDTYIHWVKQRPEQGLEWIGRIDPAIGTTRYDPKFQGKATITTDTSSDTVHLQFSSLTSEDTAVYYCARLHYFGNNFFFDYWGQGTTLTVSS VL: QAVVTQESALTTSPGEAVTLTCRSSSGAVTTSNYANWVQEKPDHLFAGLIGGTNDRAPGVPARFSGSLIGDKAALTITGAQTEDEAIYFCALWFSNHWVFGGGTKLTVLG ?
Output line: 0.000391

Input line: Same for m/h 144L124B (antibody, human IgG1, lambda, V domains shown, Mouse VH/VL joined to human IgG1 constant and human Ig lambda (IGLC2) constant; also called chimeric mouse/human 144L124B) VH: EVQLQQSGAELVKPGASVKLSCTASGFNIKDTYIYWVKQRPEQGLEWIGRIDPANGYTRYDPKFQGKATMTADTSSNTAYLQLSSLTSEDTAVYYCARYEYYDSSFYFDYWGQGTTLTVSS VL: QAVVTQESALTTSPGETVTLTCRSSTGAVTTSNYANWVQEKPDHLFTGLIGGTNNRAPGVPARFSGSLIGDKAALTITGAQTEDEAIYFCALWYSNHLVFGGGTKLTVLG
Output line: 0.0227

Switching to the query record.
Input line: Would you mind telling me what koff value was observed for m/h 144J171G (antibody, human IgG1, lambda, V domains shown, Mouse VH/VL joined to human IgG1 constant and human Ig lambda (IGLC2) constant; also called chimeric mouse/human 144J171G) VH: EVQLQQSGAELVEPGASVKLSCTASGFNIKDTYINWVKQRPEQGLEWIGRIDPANGYTRYAPKFQGKATITSDTSSNTAYLQLSSLTSEDAAVYSCSTLNYYGSSFFFDFWGQGTTLTVSS VL: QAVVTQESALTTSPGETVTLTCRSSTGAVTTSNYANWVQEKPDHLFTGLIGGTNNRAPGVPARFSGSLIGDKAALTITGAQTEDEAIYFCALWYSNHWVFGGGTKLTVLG ?
Output line: 0.00868
